Attribution: the supplement of paper PMC9233669

Tested on: biotinyl-Trp-oxazolone
Assay: self-aminoacylation, catalytic enhancement (BWO) (fold over background); higher = more active; k-Seq, kA / k0A0; sequences stand for … in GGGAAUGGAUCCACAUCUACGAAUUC…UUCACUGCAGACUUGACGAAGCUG
Variants at the floor of the assay were thinned out.
Experimental Readout: self-aminoacylation

| Record Sequence | Value Measured |
| --- | --- |
| CUAAUUCAAACAAUCCGUCUG [Fam1A.1 aminoacylation ribozyme variant] | 0.609 |
| CUAAUUCAAACAAUCGGUCCG [Fam1A.1 aminoacylation ribozyme variant] | 0.513 |
| CCACACUUCGAGCAAUCGGAC [Fam1B.1 aminoacylation ribozyme variant] | 0.929 |
| CCGCACUUCGAGCAAUCGGUC [Fam1B.1 aminoacylation ribozyme variant] | 2.26 |
| AUUACCCUGAUCAUCGAGAGA [Fam2.1 aminoacylation ribozyme variant] | 0.629 |
| CCUCACUUCAAGCAAUCGGUA [Fam1B.1 aminoacylation ribozyme variant] | 1.57 |
| CCACACUUCAAAAAAUCGGUC [Fam1B.1 aminoacylation ribozyme variant] | 14.5 |
| CUACUUCUAACAAUCGGACUG [Fam1A.1 aminoacylation ribozyme variant] | 0.419 |

----------
System: biotinyl-Phe-oxazolone
Assay: self-aminoacylation, catalytic enhancement (BFO) (fold over background); higher = more active; k-Seq, kA / k0A0; sequences stand for … in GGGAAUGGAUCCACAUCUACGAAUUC…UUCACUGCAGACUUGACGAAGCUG
Fewer inactive variants are shown than the library holds.

| Record Sequence | self-aminoacylation |
| --- | --- |
| CUACUUCAAACAAUCGUUCUA [Fam1A.1 aminoacylation ribozyme variant] | 1.08 |
| CCACACUUCCGGCAAUCGGUC [Fam1B.1 aminoacylation ribozyme variant] | 5.25 |
| CCACUCUUCAAACAAUCGGUC [Fam1B.1 aminoacylation ribozyme variant] | 78.3 |
| CUACUUUAAACAAUCGGCCUG [Fam1A.1 aminoacylation ribozyme variant] | 0.942 |
| AUUACCCUCGCCAUCGAGUGA [Fam2.1 aminoacylation ribozyme variant] | 41.1 |
| AUUACCUUGGUCAUCGGGUGA [Fam2.1 aminoacylation ribozyme variant] | 53.3 |
| AUUACCCUGGUCAUCAAGUUA [Fam2.1 aminoacylation ribozyme variant] | 0.737 |
| ACGAUUGCUAAUAGUCGCAAG [Fam3.1 aminoacylation ribozyme variant] | 1.54 |

----------
System: biotinyl-Trp-oxazolone
Assay: self-aminoacylation, catalytic enhancement (BWO) (fold over background); higher = more active; k-Seq, kA / k0A0; sequences stand for … in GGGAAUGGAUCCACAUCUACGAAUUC…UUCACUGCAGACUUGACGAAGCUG
Variants at the floor of the assay were thinned out.

| Record Sequence | self-aminoacylation |
| --- | --- |
| CUACUACAAACAAGCGGUCUG [Fam1A.1 aminoacylation ribozyme variant] | 0.883 |
| GCACACUACAAGCAAUCGGUC [Fam1B.1 aminoacylation ribozyme variant] | 1.68 |
| CUACAUCAAACAAUCGGUCUA [Fam1A.1 aminoacylation ribozyme variant] | 0.755 |
| AUUCAGCUAGGACAUCGGGUG [Fam2.2 aminoacylation ribozyme variant] | 4.43 |

----------
Measured self-aminoacylation by item
Tested on: biotinyl-Met-oxazolone
Assay: self-aminoacylation, catalytic enhancement (BMO) (fold over background); higher = more active; k-Seq, kA / k0A0; sequences stand for … in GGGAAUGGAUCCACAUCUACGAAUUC…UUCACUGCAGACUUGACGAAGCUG
Fewer inactive variants are shown than the library holds.

| Record Sequence | Test System | self-aminoacylation |
| --- | --- | --- |
| CUGCUUCAAACAAUCGGUUUG [Fam1A.1 aminoacylation ribozyme variant] | biotinyl-Met-oxazolone | 2.38 |
| CCACACUUCAUGCAAUCGAUC [Fam1B.1 aminoacylation ribozyme variant] | biotinyl-Met-oxazolone | 0.528 |
| CCGUACUUCAAGCAAUCGGUC [Fam1B.1 aminoacylation ribozyme variant] | biotinyl-Met-oxazolone | 1.06 |
| AUUACCUUGGUAAUCGAGUGA [Fam2.1 aminoacylation ribozyme variant] | biotinyl-Met-oxazolone | 7.66 |

----------
Tested on: biotinyl-Phe-oxazolone
Assay: self-aminoacylation, catalytic enhancement (BFO) (fold over background); higher = more active; k-Seq, kA / k0A0; sequences stand for … in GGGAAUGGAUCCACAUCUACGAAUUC…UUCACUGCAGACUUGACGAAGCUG
Variants at the floor of the assay were thinned out.
// reported self-aminoacylation per item

| Record Sequence | self-aminoacylation |
| --- | --- |
| CUGCUUCCAACAAUCGGUCUG [Fam1A.1 aminoacylation ribozyme variant] | 1.03 |
| AAGUUUGCUAAUACCCGCAAG [Fam3.1 aminoacylation ribozyme variant] | 0.631 |
| CUACUUCAAACCAUCGGUGUG [Fam1A.1 aminoacylation ribozyme variant] | 1.24 |
| AUUACCCAGGCCAUCGAGUGA [Fam2.1 aminoacylation ribozyme variant] | 11 |
| AAGUUUCCUAAUACUCGCAAG [Fam3.1 aminoacylation ribozyme variant] | 0.584 |
| AAGUUUGCUAAUGGUCGCCAG [Fam3.1 aminoacylation ribozyme variant] | 5.81 |
| CUAGUUCAAACAAUCGGUCGG [Fam1A.1 aminoacylation ribozyme variant] | 4.12 |
| CCACACUUCAAAAAAUCGGUC [Fam1B.1 aminoacylation ribozyme variant] | 18.2 |
| ACGUUUGCUAAUUGUCGCAAG [Fam3.1 aminoacylation ribozyme variant] | 1.96 |
| CUACGUCAAAGAAUCGGUCUG [Fam1A.1 aminoacylation ribozyme variant] | 3.41 |
| CUACUUCAAACAAGUGGUCUG [Fam1A.1 aminoacylation ribozyme variant] | 0.734 |
| AUUCACGUAGGACAUCGGGUG [Fam2.2 aminoacylation ribozyme variant] | 24.5 |
| CUACCUCAACCAAUCGGUCUG [Fam1A.1 aminoacylation ribozyme variant] | 1.08 |
| CUAUUUCAAACAAUCGGUGUG [Fam1A.1 aminoacylation ribozyme variant] | 0.988 |
| CUACUUCAAACAAUCGGUCAU [Fam1A.1 aminoacylation ribozyme variant] | 4.39 |
| CUACUUCUAACAAGCGGUCUG [Fam1A.1 aminoacylation ribozyme variant] | 0.708 |
| CUACUUGAAACAAACGGUCUG [Fam1A.1 aminoacylation ribozyme variant] | 0.858 |
| AUUCACCCAGGUCAUCCGGUG [Fam2.2 aminoacylation ribozyme variant] | 90.7 |

----------
Tested on: biotinyl-Met-oxazolone
Experiment: self-aminoacylation, catalytic enhancement (BMO) (fold over background); higher = more active; k-Seq, kA / k0A0; sequences stand for … in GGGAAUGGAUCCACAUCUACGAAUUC…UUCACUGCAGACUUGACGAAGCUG
Fewer inactive variants are shown than the library holds.

| Record Sequence | self-aminoacylation |
| --- | --- |
| AUUACCUUGGUCAGCGAGUGA [Fam2.1 aminoacylation ribozyme variant] | 5.05 |
| AUUACCUUGCUCAUCGAGUGA [Fam2.1 aminoacylation ribozyme variant] | 2.29 |
| AUUCACCUAGGGCAUCGGGUG [Fam2.2 aminoacylation ribozyme variant] | 3.55 |
| AUUCACCUAGGUCAUCGGGGC [Fam2.2 aminoacylation ribozyme variant] | 7.18 |
| AAGUUUGCUGAUAGUCCCAAG [Fam3.1 aminoacylation ribozyme variant] | 0.626 |
| AAGUGUGCUAAUAAUCGCAAG [Fam3.1 aminoacylation ribozyme variant] | 1.25 |
| AUUCCCCUAGGUCAUUGGGUG [Fam2.2 aminoacylation ribozyme variant] | 10.3 |
| AUUUUCCUGGUCAUCGAGUGA [Fam2.1 aminoacylation ribozyme variant] | 8.02 |
| AUACACCUAGGUCAACGGGUG [Fam2.2 aminoacylation ribozyme variant] | 2.09 |
| AAUACCCUGGGCAUCGAGUGA [Fam2.1 aminoacylation ribozyme variant] | 3.75 |
| CCACACUUCAAGCAAUCGGGA [Fam1B.1 aminoacylation ribozyme variant] | 1.51 |
| CCACUCUUCAAGCAAUAGGUC [Fam1B.1 aminoacylation ribozyme variant] | 0.558 |
| AUUACCUUGGUUAUCGAGUGA [Fam2.1 aminoacylation ribozyme variant] | 8.15 |
| AAGUUUGCUAAUAAUGGCAAG [Fam3.1 aminoacylation ribozyme variant] | 0.599 |
| CUACUUCAAACAACCGGUCUU [Fam1A.1 aminoacylation ribozyme variant] | 0.686 |
| CCACACAUCAAGCAAUCGGAC [Fam1B.1 aminoacylation ribozyme variant] | 0.748 |
| CCACACUUCAUUCAAUCGGUC [Fam1B.1 aminoacylation ribozyme variant] | 0.604 |
| AAGUUUGCCAAUAGUCGCAUG [Fam3.1 aminoacylation ribozyme variant] | 1.79 |
